# test-target: HIV-1 CAAN Env (HIV-1)
# assay-summary: cell-based or functional assay
// reported IC50, TZM-bl pseudovirus neutralization per item
Numbers only; they are read as µg/mL.

Any idea what IC50, TZM-bl pseudovirus neutralization was measured for 1503_H05 (PG16) (TCN-119) (antibody, V domains shown) VH: QEKLVESGGGVVQPGGSLRLSCLASGFTFHKYGMHWVRQAPGKGLEWVALISDDGMRKYHSDSMWGRVTISRDNSKNTLYLQFSSLKVEDTAMFFCAREAGGPIWHDDVKYYDFNDGYYNYHYMDVWGKGTIVTVSS VL: QSALTQPASVSGSPGQTITISCNGTRSDVGGFDSVSWYQQSPGKAPKVMVFDVSHRPSGISNRFSGSKSGNTASLTISGLHIEDEGDYFCSSLTDRSHRIFGGGTKVTVLG ? 13.5

Any idea what IC50, TZM-bl pseudovirus neutralization was measured for 1469_M23 (PG16) (TCN-118) (antibody, V domains shown) VH: QEKLVESGGGVVQPGGSLRLSCLASGFTFHKYGMHWVRQAPGKGLEWVALISDDGMRKYHSDSMWGRVTISRDNSKNTLYLQFSSLKVEDTAMFFCAREAGGPIWHDDVKYYDFNDGYYNYHYMDVWGKGTTVTVSS VL: QSALTQPASVSGSPGQTITISCNGTRSDVGGFDSVSWYQQSPGRAPKVMVFDVSHRPSGISNRFSGSKSGNTASLTISGLHIEDEGDYFCSSLTDRSHRIFGGGTKLTVLG ? 17.7

Any idea what IC50, TZM-bl pseudovirus neutralization was measured for 1489_I13 (PG16) (TCN-120) (antibody, V domains shown) VH: QEQLLESGGGVVQPGGSLRLSCLASGFTFHKYGMHWVRQAPGKGLEWVALISDDGMRKYHSNSMWGRVTISRDNSKNTLYLQFSSLKVEDTAMFFCAREAGGPIWHDDVKYYDFNDGYYNYHYMDVWGKGTTVTVSS VL: QSALTQPASVSGSPGQTITISCNGTSSDVGGFDSVSWYQQSPGKAPKVMVFDVSHRPSGISNRFSGSKSGNTASLTISGLHIEDEGDYFCSSLTDRSHRIFGGGTKVTVLG ? 24.9

Any idea what IC50, TZM-bl pseudovirus neutralization was measured for 1456_A12 (PG16) (TCN-117) (antibody, V domains shown) VH: HEQLVEAGGGVVQPGGSLRLSCLASGFTFHKYGMHWVRQAPGKGLEWVALISDDGMRKYHSDSMWGRVTISRDNSKNTLYLQFSSLRVEDTAMFFCAREAGGPIWHDDVKYYDFNDGYYNYHYMDVWGKGTKVTVSS VL: QSALTQPASVSGSPGQTITISCNGTSRDVGGFDSVSWYQQSPGKAPKVMVFDVSHRPSGMSNRFSGSKSGNTASLTISGLHIEDEGDYFCSSLTDRSHRIFGGGTKLTVLG ? 10.6

Where do the numbers come from? From patent US20160264649A1.
